All figures here come from patent US10351547B2.

# SUBJECT OF TEST: human SSTR2 (Homo sapiens (Human))
# Sequence (P30874 whole entry): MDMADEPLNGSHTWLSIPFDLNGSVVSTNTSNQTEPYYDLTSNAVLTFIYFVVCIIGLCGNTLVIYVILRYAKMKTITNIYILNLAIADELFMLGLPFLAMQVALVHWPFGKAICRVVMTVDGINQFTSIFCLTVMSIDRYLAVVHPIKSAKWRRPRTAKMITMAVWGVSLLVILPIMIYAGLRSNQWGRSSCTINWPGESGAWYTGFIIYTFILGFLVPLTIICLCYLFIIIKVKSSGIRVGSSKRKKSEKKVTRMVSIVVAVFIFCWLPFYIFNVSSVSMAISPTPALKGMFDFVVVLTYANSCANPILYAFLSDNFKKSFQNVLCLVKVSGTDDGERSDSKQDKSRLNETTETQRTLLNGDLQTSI
# ASSAY PROCEDURE: Human SSTR2 intracellular cAMP functional assay for agonists (HTRF)
# Format: cell-based
PROPERTY: EC50

- SMILES TEXT: "N#Cc1cc(F)cc(-c2ccc3ncc(-c4cc(F)cc(F)c4)c(N4CC(CN)C4)c3c2)c1O"
  SUBJECT OF TEST: "human SSTR2 (Homo sapiens (Human))"
  PROPERTY: "EC50"
  MEASURED: "100 to 1000 nM"
- SMILES TEXT: "N#Cc1cccc(-c2ccc3ncc(-c4cc(F)cc(F)c4)c(N4CCC(N)CC4)c3c2)c1OC1COC1"
  SUBJECT OF TEST: "human SSTR2 (Homo sapiens (Human))"
  PROPERTY: "EC50"
  MEASURED: "10 to 100 nM"
- SMILES TEXT: "CO/N=C/c1cccc(-c2ccc3ncc(-c4cc(F)cc(F)c4)c(N4CCC(N)CC4)c3c2)c1O"
  SUBJECT OF TEST: "human SSTR2 (Homo sapiens (Human))"
  PROPERTY: "EC50"
  MEASURED: "< 10 nM"

Next compound, EC50 to be filled in.
Look up and report EC50, with human SSTR2 (Homo sapiens (Human)) as system, for CONC(=O)Nc1nc(C)ccc1-c1ccc2ncc(-c3cc(C)cc(F)c3)c(N3CCC(N)CC3)c2c1
10 to 100 nM

* * *

Recorded pEC50 for the following compounds
# SUBJECT OF TEST: human SSTR2 (Homo sapiens (Human))
# ASSAY PROCEDURE: Human SSTR2 intracellular cAMP functional assay for agonists (HTRF)
# Type: cell-based
pEC50: −log10 of the molar value.

- COMPOUND: "CNC(=O)[C@@H]1CN(c2c(-c3cc(F)cc(F)c3)cnc3ccc(-c4cccc(C#N)c4O)cc23)CC[C@H]1N (relative stereo)"
  pEC50: "6.00 to 7.00"
- COMPOUND: "CONC(=O)Nc1ccc(-c2ccc3ncc(-c4cc(C)cc(F)c4)c(N4CCC(N)CC4)c3c2)cc1"
  pEC50: "7.00 to 8.00"
- COMPOUND: "NC1CCN(c2c(-c3cc(F)cc(F)c3)cnc3ccc(-c4cccc(C(N)C(F)(F)F)c4)cc23)CC1 (centres unmarked)"
  pEC50: "7.00 to 8.00"

Consider the compound CCCNCC1CN(c2c(-c3cc(C)cc(F)c3)cnc3ccc(-c4cc(F)c(O)c(F)c4)cc23)C1 and give its recorded pEC50.
7.00 to 8.00

Give the reported value of pEC50 for this record: Cc1cc(F)cc(-c2cnc3ccc(-c4cc(F)cc(C#N)c4O)cc3c2N2CC(CNC3COC3)C2)c1
7.00 to 8.00

Given Cc1cc(C)cc(-c2nnc3cc(Cl)c(Cl)cc3c2N2CCC(N)CC2)c1 , respond with its pEC50.
6.00 to 7.00

Output pEC50 of Cc1cc(F)cc(-c2nnc3cc(Cl)c(-c4cccc5[nH]c(=O)[nH]c45)cc3c2N2CCC(N)CC2)c1
7.00 to 8.00

Using the record for N#Cc1cc(F)cc(-c2ccc3ncc(-c4cc(F)cc(Cl)c4)c(N4CC(CN)C4)c3c2)c1O , state its measured pEC50.
7.00 to 8.00

* * *

Collected pEC50 values appear next to each entry.
# SUBJECT OF TEST: UniProt:P30874
# ASSAY PROCEDURE: Human SSTR2 intracellular cAMP functional assay for agonists (HTRF)
# Format: cell-based
# RECORDED CONDITIONS: CHO-K1 cells stably expressing human SSTR2; NKH477-stimulated cAMP; read-out: EC50 (inhibition of cAMP activities via human SST2R)
pEC50: −log10 of the molar value.

For orientation, consider the following solved cases.
- COMPOUND: "Cc1cc(Cl)cc(-c2cnc3ccc(-c4cc(F)cc(C#N)c4O)cc3c2N2CC(C)(CN)C2)c1"
  pEC50: "6.00 to 7.00"
- COMPOUND: "COC(=O)Nc1nn(C)cc1-c1ccc2ncc(-c3cc(C)cc(F)c3)c(N3CCC(N)CC3)c2c1"
  pEC50: "> 8.00"
- COMPOUND: "Cc1cc(F)cc(-c2nnc3cc(Cl)c(-c4cc(F)cc(C(N)=O)c4)cc3c2N2CC[C@H](N)[C@H](F)C2)c1 (relative stereo)"
  pEC50: "> 8.00"
- COMPOUND: "N#Cc1cccc(-c2ccc3ncc(-c4cc(F)cc(F)c4)c(N4CC[C@@H](N)[C@H](C(=O)O)C4)c3c2)c1O"
  pEC50: "6.00 to 7.00"
- COMPOUND: "COC(=O)Nc1c(F)cc(F)cc1-c1ccc2ncc(-c3cc(F)cc(OC)c3)c(N3CCC(N)CC3)c2c1"
  pEC50: "> 8.00"
- COMPOUND: "NC1CCN(c2c(-c3cc(F)cc(F)c3)cnc3ccc(-c4cc(F)c5[nH]c(=O)[nH]c5c4)nc23)CC1"
  pEC50: "> 8.00"
- COMPOUND: "Cc1cc(F)cc(-c2cnc3ccc(-c4cc(F)cc(C#N)c4O)cc3c2N2CCC(N)CC2)c1"
  pEC50: "> 8.00"

Kindly consider the entry below.
# return recorded pEC50 for input O=c1[nH]c2cc(-c3ccc4ncc(-c5cc(F)cc(F)c5)c(N5CC[C@H]6NCCO[C@@H]6C5)c4c3)cc(F)c2[nH]1
> 8.00

* * *

# SUBJECT OF TEST: UniProtKB P30874
# ASSAY PROCEDURE: Human SSTR2 intracellular cAMP functional assay for agonists (HTRF)
# Type: cell-based
pEC50: −log10 of the molar value.
Collected pEC50 values appear next to each entry.

- COMPOUND: "CO[C@@H]1CN(c2c(-c3cc(F)cc(F)c3)cnc3ccc(-c4cccc(C#N)c4O)cc23)CC[C@@H]1N"
  MEASURED: "7.00 to 8.00"
- COMPOUND: "Cc1cc(F)cc(-c2cnc3ccc(-c4cc(F)cc(C#N)c4O)cc3c2N2CC(CN3CCCCC3)C2)c1"
  MEASURED: "7.00 to 8.00"
- COMPOUND: "Cc1cc(Cl)cc(-c2cnc3ccc(-c4cccc(C#N)c4O)cc3c2N2CC(CN)C2)c1"
  MEASURED: "7.00 to 8.00"

Let us move to another entry and its pEC50.
Please give the documented pEC50 of CO[C@@H]1CN(c2c(-c3cc(F)cc(F)c3)cnc3ccc(-c4cccc(C#N)c4O)cc23)CC[C@H]1N (relative stereo)
> 8.00
